Test system: A549 cells
test description: AlamarBlue viability assay
condition set: A549 human lung cells, 48 hours
value kind: Toxicity at IC50

| molecule | reading |
| --- | --- |
| CC1(C)CCc2c(O)ccc(C(=O)/C=C/c3ccc(O)cc3)c2O1 | Yes |
| O=C(O)c1cc(Cc2ccc(O)c(C(=O)O)c2)ccc1O | No |
| O=C(O)c1ccc2ccc(CCc3ccc(O)c(O)c3)nc2c1O | No |
| Cc1c(S(=O)(=O)[O-])oc2c1C(=O)C(=O)c1c-2ccc2c1CCCC2(C)C.[Na+] [Compound 60, Tanshinone IIA sulfonate] | no |
